target: human activated kallikrein enzyme (Homo sapiens); experiment: Inhibition of human activated plasma kallikrein, fluorogenic peptide substrate (PFR-AMC), 500 pM enzyme format; settings: 500 pM activated kallikrein, 30 min preincubation, 10 min reaction, room temperature, read-out: Primary Dose Response Assay: Average EC50
Sequence (P03952 391-638 limits assumed): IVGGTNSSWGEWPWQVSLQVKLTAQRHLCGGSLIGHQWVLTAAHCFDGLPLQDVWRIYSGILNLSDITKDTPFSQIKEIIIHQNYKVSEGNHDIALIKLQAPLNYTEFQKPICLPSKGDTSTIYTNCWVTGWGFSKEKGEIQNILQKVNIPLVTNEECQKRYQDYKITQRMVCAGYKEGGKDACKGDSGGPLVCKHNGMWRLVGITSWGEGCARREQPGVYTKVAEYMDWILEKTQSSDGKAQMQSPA
Sequence (P03952 20-390 partner limits assumed): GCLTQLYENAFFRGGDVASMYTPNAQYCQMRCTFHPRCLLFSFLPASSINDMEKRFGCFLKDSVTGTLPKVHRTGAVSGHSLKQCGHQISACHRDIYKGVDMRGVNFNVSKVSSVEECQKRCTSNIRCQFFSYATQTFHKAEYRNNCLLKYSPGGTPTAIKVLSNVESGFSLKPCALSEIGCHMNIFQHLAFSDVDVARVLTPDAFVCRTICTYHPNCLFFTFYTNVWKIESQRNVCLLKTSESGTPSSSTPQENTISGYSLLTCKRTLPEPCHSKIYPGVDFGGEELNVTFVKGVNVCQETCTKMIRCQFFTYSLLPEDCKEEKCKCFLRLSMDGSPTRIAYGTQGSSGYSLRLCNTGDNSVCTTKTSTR
pEC50: −log10 of the molar value.
experimental readout: pEC50

Record excerpt, results attached:
# compound, test value
records = [
    ("Cc1ccnc([C@H]2C[C@@H]2C(=O)Nc2cc(NCc3ccc(N4CC5CC5C4)nc3)ncn2)n1 (relative stereo)", "7.60 to 8.60"),
    ("N#Cc1ccc(Cl)cc1[C@H]1C[C@@H]1C(=O)Nc1cc(NCc2nc3ccc(C4CC4)cn3n2)ncn1 (racemic)", "7.60 to 8.60"),
    ("Cc1ccnc([C@H]2C[C@@H]2C(=O)Nc2cc(N3C[C@@H](O)C[C@@H]3c3cn4cc(C5CC5)cnc4n3)ncn2)n1 (relative stereo)", "> 8.60"),
    ("O=C(Nc1cc(N2C[C@@H](O)C[C@@H]2c2cn3nc(C4CC4)ccc3n2)ncn1)[C@H]1C[C@@H]1c1cc(Cl)ccn1", "> 8.60"),
]

Below: the item to evaluate.
Form field: pEC50 recorded for O=C(Nc1cc(OCc2ccc(Cn3cccn3)cc2)cnn1)[C@H]1C[C@@H]1c1cncc(Cl)c1 (racemic) with human activated kallikrein enzyme (Homo sapiens) (enter value)
< 6.30
